Measured pEC50 of individual entries
Molecular target: α2β1 (Homo sapiens, UniProt P05556+P17301)
Construct: endogenous in cells; host or cells: Jurkat cells
Sequence (P17301 30-1181): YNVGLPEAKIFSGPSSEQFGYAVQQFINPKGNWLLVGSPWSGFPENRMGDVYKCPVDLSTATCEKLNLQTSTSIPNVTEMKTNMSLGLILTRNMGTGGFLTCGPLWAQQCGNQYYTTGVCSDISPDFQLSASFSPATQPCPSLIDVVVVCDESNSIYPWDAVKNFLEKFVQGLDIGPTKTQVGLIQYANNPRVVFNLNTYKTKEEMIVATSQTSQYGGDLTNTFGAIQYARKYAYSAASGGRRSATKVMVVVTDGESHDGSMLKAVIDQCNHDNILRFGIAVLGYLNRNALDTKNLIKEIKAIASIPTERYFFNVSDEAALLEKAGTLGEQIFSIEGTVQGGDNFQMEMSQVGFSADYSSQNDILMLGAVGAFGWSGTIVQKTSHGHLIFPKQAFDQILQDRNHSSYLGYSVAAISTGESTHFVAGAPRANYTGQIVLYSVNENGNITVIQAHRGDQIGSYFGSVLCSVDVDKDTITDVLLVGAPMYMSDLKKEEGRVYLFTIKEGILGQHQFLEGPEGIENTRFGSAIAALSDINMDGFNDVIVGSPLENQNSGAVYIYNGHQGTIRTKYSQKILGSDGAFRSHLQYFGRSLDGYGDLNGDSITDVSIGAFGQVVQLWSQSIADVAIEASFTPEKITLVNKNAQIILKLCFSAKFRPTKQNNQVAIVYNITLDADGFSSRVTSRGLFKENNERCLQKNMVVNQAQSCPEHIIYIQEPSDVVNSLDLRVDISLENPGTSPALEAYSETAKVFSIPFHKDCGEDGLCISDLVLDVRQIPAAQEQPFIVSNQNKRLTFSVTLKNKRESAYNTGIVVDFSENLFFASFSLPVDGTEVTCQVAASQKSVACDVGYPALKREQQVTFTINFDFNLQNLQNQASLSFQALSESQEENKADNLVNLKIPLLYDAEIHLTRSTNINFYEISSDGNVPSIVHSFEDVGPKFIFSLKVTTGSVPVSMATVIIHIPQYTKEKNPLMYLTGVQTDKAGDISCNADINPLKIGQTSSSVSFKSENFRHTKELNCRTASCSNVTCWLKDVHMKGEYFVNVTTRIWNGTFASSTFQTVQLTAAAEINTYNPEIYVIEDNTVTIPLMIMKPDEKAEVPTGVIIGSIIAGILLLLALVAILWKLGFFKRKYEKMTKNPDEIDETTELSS
Sequence (P05556 21-798 partner): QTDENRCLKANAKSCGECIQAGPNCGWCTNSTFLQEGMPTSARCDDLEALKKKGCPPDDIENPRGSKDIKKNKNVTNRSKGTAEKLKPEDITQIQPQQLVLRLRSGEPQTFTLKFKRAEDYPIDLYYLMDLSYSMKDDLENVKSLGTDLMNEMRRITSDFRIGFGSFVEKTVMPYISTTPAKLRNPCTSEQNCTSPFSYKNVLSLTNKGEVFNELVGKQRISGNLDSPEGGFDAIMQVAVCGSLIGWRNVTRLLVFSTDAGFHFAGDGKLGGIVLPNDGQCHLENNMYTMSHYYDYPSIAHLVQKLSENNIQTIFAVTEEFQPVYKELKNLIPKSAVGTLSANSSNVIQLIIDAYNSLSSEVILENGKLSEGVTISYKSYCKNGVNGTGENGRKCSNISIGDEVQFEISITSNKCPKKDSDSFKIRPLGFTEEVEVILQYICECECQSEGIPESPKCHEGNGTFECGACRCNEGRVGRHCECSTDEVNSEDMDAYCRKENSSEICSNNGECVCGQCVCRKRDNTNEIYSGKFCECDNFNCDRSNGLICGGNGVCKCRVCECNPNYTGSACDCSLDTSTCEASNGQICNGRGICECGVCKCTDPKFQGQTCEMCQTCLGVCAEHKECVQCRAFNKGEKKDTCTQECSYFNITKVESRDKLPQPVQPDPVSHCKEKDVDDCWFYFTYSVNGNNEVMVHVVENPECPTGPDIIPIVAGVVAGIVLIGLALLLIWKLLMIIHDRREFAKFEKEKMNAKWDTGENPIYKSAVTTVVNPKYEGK
Experiment: Jurkat cell adhesion to rat type I collagen
Type: cell-based
Conditions: Jurkat cells, PMA
As a rule, pEC50 stands for the negative log10 of the concentration, concentration in M.

>>> print(df.to_string())
                                   compound  reported_property   val
0  FC(F)(F)Oc1ccc(Sc2ccccc2CNC2CCN(Cc3ccccc3)CC2)cc1.O=C(O)C(F)(F)F.O=C(O)C(F)(F)F              pEC50  5.10
1  CCN1CCCC1CNCc1ccccc1Sc1ccc2ccccc2c1.O=C(O)C(F)(F)F.O=C(O)C(F)(F)F (centres unmarked)              pEC50  5.15
2  N[C@@H]1Cc2ccccc2O[C@@H]1c1ccc2c(c1)CCO2              pEC50  5.15
3  O=C(/C=C/c1ccc(Sc2ccc3c(c2)OCCO3)c([N+](=O)[O-])c1)N1CCNCC1              pEC50  4.77

Please look at the following compound next.
Given the entry CC(C)(C)c1ccc(Sc2ccccc2CNCCN2CCCC2)cc1.O=C(O)C(F)(F)F.O=C(O)C(F)(F)F , report its measured pEC50.
4.89
